# Test system: Human Small Cell Lung Cancer NCI-H82
# MEASUREMENT_DESCRIPTION: Cell proliferation experiment (Alarm blue), H82
# Format: cell-based
# CONDITION_DETAILS: Homo sapiens, NCI-H82; H82 cells, 72 h culture; read-out: Anti cell proliferative activity EC50, H82
PROPERTY_MEASURED: EC50 (nM)

>>> numeric_value("CNC(=O)c1ccccc1Nc1nc(Nc2ccc(N3CCN(C(=O)NC4CCN(C(=O)CNCCC#Cc5ccc6c(c5)CN(C5CCC(=O)NC5=O)C6=O)CC4)CC3)cc2)ncc1Cl (centres unmarked)")
253
>>> numeric_value("CNC(=O)c1ccccc1Nc1nc(Nc2ccc(N3CCN(C(=O)N[C@H]4CC[C@@H](N(CCC#Cc5ccc6c(c5)CN(C5CCC(=O)NC5=O)C6=O)C(=O)OCc5ccc(NC(=O)[C@H](CC(N)=O)NC(=O)[C@H](C)NC(=O)[C@H](C)NC(=O)COCCOC)cc5)CC4)CC3)cc2)ncc1Cl (some centres unmarked)")
141
>>> numeric_value("CNC(=O)c1ccccc1Nc1nc(Nc2ccc(N3CCN(C(=O)N[C@H]4CC[C@@H](N(CCC#Cc5ccc6c(c5)CN(C5CCC(=O)NC5=O)C6=O)C(=O)OCc5ccc(NC(=O)[C@H](CC(N)=O)NC(=O)[C@H](C)NC(=O)[C@H](C)NC(=O)COCCOCCOCCOC)cc5)CC4)CC3)cc2)ncc1Cl (some centres unmarked)")
94.2
>>> numeric_value("NC(=O)c1ccccc1Nc1nc(Nc2ccc(N3CCN([C@H]4CC[C@@H](NCCC#Cc5ccc6c(c5)CN(C5CCC(=O)NC5=O)C6=O)CC4)CC3)cc2)ncc1Cl (some centres unmarked)")
314
>>> numeric_value("C[C@H](NC(=O)CCCCCN1C(=O)C=CC1=O)C(=O)N[C@@H](C)C(=O)N[C@@H](CC(N)=O)C(=O)Nc1ccc(COC(=O)N(CCC#Cc2ccc3c(c2)CN(C2CCC(=O)NC2=O)C3=O)C2CCC(NC(=O)N3CCN(c4ccc(Nc5ncc(Cl)c(Nc6ccccc6C(N)=O)n5)cc4)CC3)CC2)cc1 (some centres unmarked)")
106

The measurements presented in this section are drawn from patent US20250041306A1.
